value.type: melting point

Please give the measured melting point for this molecule: O=c1oc2cc(N3CCNCC3)ccc2cc1-c1cc2ccccn2n1 [Cpd 187]
236 to 238 °C

Please give the measured melting point for this molecule: Cc1ccc2oc(-c3cc4ccc(N5CCN6CCC[C@@H]6C5)cc4oc3=O)cc2n1 [Compound 721]
195 to 198 °C

Please give the measured melting point for this molecule: C[C@@H]1CN(c2cc(F)c3cc(-c4nc5c(F)cccc5o4)c(=O)oc3c2)C[C@H](C)N1 [Compound 367]
268 to 272 °C

Please give the measured melting point for this molecule: COc1ccc(-c2cc3ccc(N4CCN[C@H](C)C4)cc3oc2=O)cc1 [Compound 448]
123 to 126 °C

Please give the measured melting point for this molecule: CN1CCN(c2ccc3cc(-c4nc5c(Cl)cccc5s4)c(=O)oc3c2)CC1 [Compound 17]
256 to 260 °C

Please give the measured melting point for this molecule: Cc1cn2cc(-c3cc4ccc(CCCCN(C)C)cc4oc3=O)nc2c(C)n1 [Cpd 902]
190 to 193 °C

Please give the measured melting point for this molecule: Cc1cn2cc(-c3cc4ccc(N5CC[C@@H](N(C)C)C5)cc4oc3=O)nc2c(C)n1 [Compound 690]
239 to 242 °C

Please give the measured melting point for this molecule: CN1CCN(c2ccc3cc(-c4cn5ccccc5n4)c(=O)oc3c2)CC1 [Compound 72]
265 to 268 °C

----------
Task for the reader: assign each of the following compounds its reported melting point.

Please give the measured melting point for this compound: Cc1nc(Cl)cn2cc(-c3cc4ccc(N5CCN(C)CC5)cc4oc3=O)nc12
217 to 220 °C

Please give the measured melting point for this compound: CC(=O)O.CC[C@H]1CN(c2ccc3cc(-c4cn5cc(C)nc(C)c5n4)c(=O)oc3c2)CCN1C
170 to 172 °C

Please give the measured melting point for this compound: COc1ccn2cc(-c3cc4ccc(N5CCCN(C)CC5)cc4oc3=O)nc2c1
198 to 207 °C

Please give the measured melting point for this compound: COc1ccc(-c2cc3ccc(N4CCNCC4)cc3oc2=O)c(OC)c1
171 to 173 °C

----------
value.type: melting point

Please give the measured melting point for this compound: Cc1cn2cc(-c3cc4ccc(N5CC[C@H](N(C)C)C5)cc4oc3=O)ccc2n1
230 to 234 °C

Please give the measured melting point for this compound: Cc1cn2cc(-c3cc4ccc(N5CCN(C(C)C)CC5)cc4oc3=O)cc2c(C)n1
173 to 176 °C

Please give the measured melting point for this compound: Cc1cn2cc(-c3cc4ccc(N5CCCN(C(C)C)CC5)cc4oc3=O)cc2c(C)n1
115 to 118 °C

Please give the measured melting point for this compound: CNCc1ccc2cc(-c3nc4ccccc4s3)c(=O)oc2c1
156 to 160 °C

Please give the measured melting point for this compound: Cc1ccn2nc(-c3cc4ccc(N5CCCNCC5)cc4oc3=O)cc2c1
203 to 206 °C

Please give the measured melting point for this compound: Cc1cn2cc(-c3cc4ccc(N(C)[C@H]5CCN(C)C5)cc4oc3=O)nc2c(C)n1
178 to 184 °C

Please give the measured melting point for this compound: Cc1cc(F)c2nc(-c3cc4ccc(N5CCCNCC5)cc4oc3=O)cn2c1
242 to 252 °C

Please give the measured melting point for this compound: Cc1cn2cc(-c3ccc4cc(N5CCNCC5)c(=O)oc4c3)ccc2n1
174 to 178 °C
